- Test system: A498 renal
- Test description: NCI tumour cell line growth inhibition, 48 h
Parameter: TGI

Data request: Param readout = TGI; param system = A498 renal; param query = COc1ccc(NC(=O)CSc2nc(C)nc3c2sc(=S)n3-c2ccccc2)cc1 ; response: value
Data returned: > 10 µM

Data request: And for O=C(NNC1=NS(=O)(=O)c2ccccc2N1c1ccccc1)c1cnccn1 ?
Data returned: > 100 µM

Data request: Cool, now Cc1c(CN2CCOCC2)c(CN2CCOCC2)c(C)n1-c1ccc(Cl)cn1
Data returned: > 100 µM

Data request: Field entry: CCc1nc(N)nc(N)c1-c1ccc(N2CCNCC2)c([N+](=O)[O-])c1
Data returned: > 100 µM

Data request: How about CNc1ccc(C)cc1S(=O)(=O)c1ccccc1[N+](=O)[O-] ?
Data returned: > 100 µM

Data request: Request: Nc1nc(N)c2c(Cl)c(CNc3ccc(Cl)c(Cl)c3)ccc2n1
Data returned: 8.68 µM

Data request: For CCN1C[C@@H](C)n2c(c(O)c3c(=O)n(Cc4ccc(F)c(Cl)c4)nc(C(=O)NC)c32)C1=O then?
Data returned: 4.55 µM

Data request: Another compound to look at: Cc1cc(NS(=O)(=O)c2ccc(NC(=O)c3cccc4c(Nc5ccc(S(=O)(=O)Nc6cc(C)on6)cc5)c5ccc(Cl)cc5nc34)cc2)no1
Data returned: > 100 µM

Data request: # iterate: S=c1[nH]nc(COc2ccc(Cl)cc2)n1-c1ccccc1
Data returned: > 100 µM

Data request: Proceed to COc1ccc(/C(=N/Nc2nc3ccccc3n2Cc2ccccc2)C(=O)O)cc1
Data returned: 44.5 µM

Data request: Another compound to look at: OC(Cc1cnnc2ccccc12)C(Cl)(Cl)Cl (stereo not given)
Data returned: > 10 µM

Data request: Would you kindly repeat that for OCC1NC(CO)C(O)C1O (stereo not given) ?
Data returned: > 100 µM

Data request: And for Cc1ccc(N=NC(=O)NNc2ccc(C)cc2Br)c(Br)c1 ?
Data returned: 52.3 µM

Data request: // repeat for CN(C)C/C=C/C(=O)Nc1ccc(C(=O)Nc2cccc(Nc3ncc(Cl)c(-c4c[nH]c5ccccc45)n3)c2)cc1 and report
Data returned: 0.119 µM

Data request: Now the same for COc1ccc(/C=C/C(=O)OC2CC34CCNC35CC(OC5(OC)C2OC)c2ccc(OC)c(O)c24)cc1O (stereo not given)
Data returned: > 100 µM

Data request: // same read-out, input: C=CC(=O)C#Cc1cnc(OC)nc1OC
Data returned: > 69.1 µM

Data request: Note, next up: CCN(CC)CCOc1ccc2c(-c3ccccc3)c(-c3ccc(OC)cc3)c(=O)oc2c1
Data returned: 16.4 µM

Data request: And the next one, Cn1cc(Nc2nccc(-c3ccc4c(c3)CN(C3COC3)CC[C@H]4NC(=O)c3cn(C(C)(C)C)nn3)n2)cn1 ?
Data returned: > 100 µM

Data request: Now the same for O=C(Cc1csc2[n+]1C(=O)/C(=C/c1ccc(Cl)cc1)S2)Nc1ccccc1
Data returned: 40.1 µM

Data request: Same read-out for CC=C/C=C/[C@@H]1O[C@](O)([C@H](CC)C(=O)NC/C=C/C=C(\C)[C@@H](OC)[C@@H](C)[C@@H]2O[C@H](/C=C/C=C/C=C(\C)C(=O)c3c(O)cc[nH]c3=O)[C@H](O)[C@@H]2O)[C@H](O)[C@H](O)C1(C)C ?
Data returned: > 100 µM

Data request: Next compound up: Fc1ccc(C2CC(c3cccc(Nc4ccncc4)c3)=NN2c2ccccc2)cc1 (stereo not given)
Data returned: 6.92 µM

Data request: Please give the result for CCOC(=O)/C1=C(\C)N(Cc2ccccc2)C(=O)c2ccccc2C(=O)c2c(OC(C)=O)ccc(OC(C)=O)c21 too.
Data returned: > 100 µM

Data request: And the next one, Cn1ccc(S(=O)(=O)N2CCC[C@H](Nc3nccc(-c4c(-c5cccc(O)c5)nc5occn45)n3)C2)n1 ?
Data returned: 26.1 µM

Data request: // repeat for O=[N+]([O-])c1ccc(C2Nn3c(nnc3-c3cccc([N+](=O)[O-])c3)S2)cc1 (stereo not given) and report
Data returned: > 100 µM

Data request: Please answer likewise for COC(=O)COc1ccccc1/C=C1/N=C(c2ccccc2)N(c2c(C)n(C)n(-c3ccccc3)c2=O)C1=O
Data returned: > 100 µM

Data request: How about O=C(NCCc1ccccn1)c1ccc2cc(C(=O)N3CC(CCl)c4ccc([N+](=O)[O-])cc43)[nH]c2c1 (stereo not given) ?
Data returned: > 100 µM

Data request: Another compound: CC(=O)Nc1ccc2cc(C#N)c(=O)[nH]c2n1
Data returned: > 100 µM

Data request: Would you mind doing CC(C)(C)OC(=O)NC(Cc1ccc(OC(C)(C)C)cc1)C(=O)N[C@H]1CC[C@H](C(=O)O)C1 (stereo not given in full) as well?
Data returned: > 100 µM

Data request: Now consider CC(=O)NC(CCc1ccc(Cl)c(Cl)c1)c1cccc(O)c(=O)c1 (stereo not given) and answer again.
Data returned: 25.8 µM

Data request: Now the same for CC(=O)Nn1c(Cc2ccc(Cl)cc2)nn(C)c1=O
Data returned: > 100 µM

Data request: Next: O=C(CC(=O)N1N=C(n2ccc3ccccc32)CC1c1ccccc1)Nc1ccccc1Cl (stereo not given)
Data returned: > 100 µM

Data request: Please answer likewise for C[n+]1c(-c2ccc(/C=N\Nc3ccnc(N/N=C/c4ccc(-c5cn6ccsc6[n+]5C)cc4)n3)cc2)cn2ccsc21
Data returned: 54.8 µM

Data request: Could you do the same for CN(C)/C=N/c1cc(=O)n(C)c(=O)n1C , please?
Data returned: > 100 µM

Data request: Quick one: N#Cc1c(-c2ccccc2)nc(SCC(O)CN2CCOCC2)nc1N1CCOCC1 (stereo not given)
Data returned: 23 µM

Data request: Consider next the compound CC(=O)OC[C@@]1(C)[C@@H]2[C@@H]3[C@@]4(CO[C@]3(C)C(=O)[C@@]3(OC(C)=O)C[C@H](C)[C@H](OC(C)=O)[C@@H]3[C@H]4OC(C)=O)[C@H](OC(=O)c3ccccc3)C[C@@H]21 in the same way.
Data returned: > 100 µM

----------
For each of the molecules below, state its log10 TGI.
- Tested on: HL-60(TB) leukemia
- Test description: NCI tumour cell line growth inhibition, 48 h
Scale type: logarithmic (base 10). Underlying TGI unit: µM.

Data request: Which measured log10 TGI value corresponds to N#C/C(=C\c1ccc(O)c(O)c1)C(=O)NCc1cccc(C(F)(F)F)c1 ?
Data returned: 1.97

Data request: // same read-out, input: C/C=C(/C)C(=O)OC1C=C(CO)C(=O)C(OC(=O)C2(C)OC2C)C1C(C)C (stereo unspecified)
Data returned: 0.81

Data request: Now consider C=CC(=O)C#Cc1cnc(OC)nc1OC .
Data returned: 0.51

Data request: Another molecule to look at: C[n+]1c(-c2ccc(/C=N\Nc3ccnc(N/N=C/c4ccc(-c5cn6ccsc6[n+]5C)cc4)n3)cc2)cn2ccsc21
Data returned: 1.76

Data request: Further, for COc1cc(C2C=C(C)N=C3SC=C(C)N32)cc(OC)c1OC (stereo unspecified) ?
Data returned: 0.85

Data request: CC1CCC2C(C)C(OC(=O)CCC(=O)O)OC3OC4(C)CCC1C32OO4 (stereo unspecified) , same question.
Data returned: 0.67

Data request: And Cc1cc(C)c([O-])c(-[n+]2c(-c3ccccc3)cc(-c3ccccc3)cc2-c2ccccc2)c1 ?
Data returned: 0.62

Data request: Also COc1cc(C(=O)/C=C/c2cccnc2Nc2ccc(Cl)cc2)cc(OC)c1OC ?
Data returned: 0.71

Data request: Quick one: COc1ccc(/C=C/C(=O)C(=O)/C=C/c2ccc(OC)c(OC)c2)cc1OC
Data returned: 1.23

Data request: Next record, please: CC(=O)NC(CCc1ccc(Cl)c(Cl)c1)c1cccc(O)c(=O)c1 (stereo unspecified)
Data returned: 0.72

----------
- Test system: SN12C renal
- Test description: NCI tumour cell line growth inhibition, 48 h
Parameter: TGI

Data request: Need TGI, item CN1CCOC1(C)c1ccccc1 (stereo not drawn)
Data returned: > 100 µM

Data request: CC1(C)COC(c2cccc(C(O)c3ccc(Cl)cc3)c2)=N1 (stereo not drawn) , same question.
Data returned: 73.9 µM

Data request: Similarly, O=c1c2ccccc2nc(-c2ccccc2)n1/N=C/c1ccccc1[N+](=O)[O-] ?
Data returned: > 100 µM

Data request: Please give the result for Cc1cc2c(cc1Cl)SC(NNC(=O)c1ccccc1)=NS2(=O)=O too.
Data returned: > 10 µM

Data request: Moving on to the next molecule: COC12OCCN(C)C1=CC(=O)C1N=NCC12 (stereo not drawn)
Data returned: > 100 µM

Data request: Can you handle COc1cc2c(SCCN(C)C)nc3ccccc3c2c2ccccc12 next?
Data returned: 6.41 µM

Data request: Query CN(C)/C=N/c1cc(=O)n(C)c(=O)n1C next
Data returned: > 100 µM

Data request: Follow-up entry: CN(C)C12C=CC=CC3=C(c4ccccc4)C(c4ccccc4)=C(c4ccccc4)C31c1ccccc1C2 (stereo not drawn)
Data returned: > 100 µM

Data request: Another molecule: O=C(Oc1ccc(C(c2c(O)c3ccccc3oc2=O)c2c(O)c3ccccc3oc2=O)cc1)c1ccc(C(=O)c2ccccc2)cc1
Data returned: > 100 µM

Data request: O=C(CC(=O)N1N=C(n2ccc3ccccc32)CC1c1ccccc1)Nc1ccccc1Cl (stereo not drawn) , same question.
Data returned: > 100 µM

Data request: What do you have for Cc1c(C(=O)/C=C/c2ccc([N+](=O)[O-])cc2)[n+](=O)c2ccccc2n1[O-] ?
Data returned: > 100 µM

Data request: // query: CC(=O)Nc1ccc2cc(C#N)c(=O)[nH]c2n1
Data returned: > 100 µM

Data request: Queued: C=C1C(=O)O[C@H]2C(=O)[C@H](C)CCC/C(C)=C/CC[C@@]3(C)O[C@@H]3C[C@@H]12
Data returned: 18.3 µM

Data request: Now consider CC(=O)NNc1nc(C)c(C(=O)/C=C/c2ccc(N(C)C)cc2)s1 .
Data returned: > 100 µM

Data request: And for CC(=O)[CH-]C(=O)c1ccccc1.CC(=O)[CH-]C(=O)c1ccccc1.CC(=O)[CH-]C(=O)c1ccccc1.[Cl-].[Hf+4] ?
Data returned: > 100 µM

Data request: Would you mind doing O=[N+]([O-])c1ccccc1S(=O)(=O)c1cccc2c1NCCC2 as well?
Data returned: > 100 µM

Data request: Also check COC(=O)C(Cc1c(-c2[nH]c3ccccc3c2CC(NC(C)=O)C(=O)OC)[nH]c2ccccc12)NC(C)=O (stereo not drawn)
Data returned: > 100 µM

Data request: Another molecule to check: COC1=CC(=O)C2=C(C1=O)[C@H]1CC[C@]3(C)C(=O)CC[C@H]3[C@@H]1CC2
Data returned: 44.5 µM

Data request: Same read-out for CN1CC=C(C#CC(C)(C)O)CC1 ?
Data returned: > 37.5 µM

Data request: Follow-up item: COC(=O)c1ccccc1C1CN=NC12Cc1cc3c(cc1C2=O)CCC3 (stereo not drawn)
Data returned: > 100 µM

Data request: Subsequent entry: COc1ccc(/C=N/NS(=O)(=O)c2ccc(/C=C3\NC(=O)NC3=O)cc2)cc1
Data returned: > 100 µM

Data request: Next record, please: S=c1[nH]nc(COc2ccc(Cl)cc2)n1-c1ccccc1
Data returned: > 100 µM

Data request: # repeat for O=[N+]([O-])c1ccc(C2Nn3c(nnc3-c3cccc([N+](=O)[O-])c3)S2)cc1 (stereo not drawn)
Data returned: > 100 µM

Data request: // same read-out, input: O=C(Cc1csc2[n+]1C(=O)/C(=C/c1ccc(Cl)cc1)S2)Nc1ccccc1
Data returned: > 100 µM

Data request: Repeat with O=C(O)C1CC[N-]CC1.O=C(O)C1CC[N-]CC1.[NH2-].[NH2-].[Pt+4]
Data returned: > 100 µM

Data request: Now consider O=C1CC[C@@H](S(=O)(=O)c2ccccc2)[C@H](/C=C/c2ccccc2)O1 .
Data returned: > 100 µM

Data request: Follow-up item: CSc1ncc2c(C#N)c3n(C)c4ccccc4n3c(=O)c2n1
Data returned: > 100 µM

Data request: Now try CCN(CC)CCOc1ccc2c(-c3ccccc3)c(-c3ccc(OC)cc3)c(=O)oc2c1 .
Data returned: 23.9 µM

Data request: Input COc1ccc(CCn2ccc(C)n2)c(OC)c1
Data returned: > 100 µM

Data request: And then O=S(=O)(N=[Se](=O)(c1ccccc1)c1ccccc1)c1ccccc1 , what is it?
Data returned: > 100 µM

Data request: And for COC(=O)C1=C(N)C2=C(N)Oc3ccccc3C2CC1=C(C#N)C#N (stereo not drawn) ?
Data returned: 92.6 µM

Data request: Next up: CCOP(=O)(OCC)C(Cc1c[nH]c2ccccc12)C(=O)O (stereo not drawn)
Data returned: > 100 µM

Data request: Proceed to O=S(O)CCCCCSSc1ccc(Cl)cc1
Data returned: 31.1 µM
